System: ragweed (common ragweed, Ambrosia elatior)
Assay: Test A preemergence
Type: in vivo
Conditions: Ambrosia artemisiifolia, pre-emergence, 240 h, 500 g ai/ha, preemergence; 0 to 100 scale, 0 = no effect, 100 = complete control; read-out: Plant response rating, Ragweed
Description: […]
quantity measured: pest or weed control at 500 g/ha (%)
Answer format: numeric, % implied, no suffix.

molecule: CS(=O)(=O)c1ccccc1NC(=O)[C@H]1C(=O)NC[C@@H]1c1cccc2c1OC(F)(F)O2 [Compound 753]
units label: %
pest or weed control at 500 g/ha: 0

// moving on: another record for pest or weed control at 500 g/ha
// pest or weed control at 500 g/ha lookup, key: CN1C[C@H](c2ccc(C(F)(F)F)cc2)[C@@H](C(=O)Nc2ccccc2F)C1=O [Compound 622]
60

----------
System: barnyardgrass (Echinochloa crus-galli)
Experiment: Test G Pre-Emergence Protocol
Assay type: in vivo
Conditions: Echinochloa crus-galli, pre-emergence, 312 h, 62.5 g ai/ha, evaluated after 13 days, 100=total damage to plant, 0=no damage to plant, read-out: plant damage rating, Barnyardgrass
Below, each entry is listed alongside its reported pest or weed control at 62.5 g/ha.
Answer format: numeric, % implied, no suffix.

molecule: CN1C[C@H](c2ccc(C(F)(F)F)cc2)[C@@H](C(=O)Nc2ccc(F)cc2[N+](=O)[O-])C1=O (racemic) [Compound 1425]
study target: barnyardgrass (Echinochloa crus-galli)
pest or weed control at 62.5 g/ha / %: 40
--
molecule: Cc1nc(F)ccc1[C@@H]1CN(C)C(=O)[C@H]1C(=O)Nc1cccc(F)c1F (racemic) [Compound 1492]
study target: barnyardgrass (Echinochloa crus-galli)
pest or weed control at 62.5 g/ha / %: 20
--
molecule: CN1C[C@@H](c2ccc(C(F)(F)F)cc2)[C@H](C(=O)Nc2cc(F)ncn2)C1=O (racemic) [Compound 1509]
study target: barnyardgrass (Echinochloa crus-galli)
pest or weed control at 62.5 g/ha / %: 0
--
molecule: Cc1n[nH]c(NC(=O)[C@@H]2C(=O)N(C)C[C@H]2c2ccc(C(F)(F)F)cc2)c1C#N (racemic) [Compound 1582]
study target: barnyardgrass (Echinochloa crus-galli)
pest or weed control at 62.5 g/ha / %: 0
--
molecule: CN1C[C@H](c2ccc3ccccc3c2)[C@@H](C(=O)Nc2cccc(F)c2F)C1=O (racemic) [Compound 1501]
study target: barnyardgrass (Echinochloa crus-galli)
pest or weed control at 62.5 g/ha / %: 50

// pest or weed control at 62.5 g/ha lookup, key: CN1C[C@@H](c2ccc(C(F)(F)F)cc2)[C@H](C(=O)Nc2cc(Cl)n[nH]2)C1=O (racemic) [Compound 1632]
0

# iterate: COC(=O)c1cc([C@H]2CN(C)C(=O)[C@@H]2C(=O)Nc2ccccc2F)ccc1Cl (racemic) [Compound 1460]
70

# iterate: Cc1cccnc1NC(=O)C1C(=O)N(C)CC1c1ccc(C(F)(F)F)cc1 (stereo not shown) [Compound 1437]
0

# iterate: Cc1ccc([C@H]2CN(C)C(=O)[C@@H]2C(=O)Nc2ccc(F)nc2F)cc1 [Compound 1402]
90

# iterate: Cc1cc(NC(=O)[C@@H]2C(=O)N(C)C[C@H]2c2ccc(C(F)(F)F)cc2)ccc1F (racemic) [Compound 1593]
0

# iterate: CN1C[C@H](c2ccc(C(F)(F)F)cc2)[C@@H](C(=O)Nc2ccc(F)c(Cl)c2)C1=O (racemic) [Compound 1434]
0

# iterate: CN1C[C@@H](c2ccc(C(F)(F)F)cc2)[C@H](C(=O)Nc2ccncc2Cl)C1=O (racemic) [Compound 1608]
0

# iterate: CN1C[C@H](c2ccc(C(F)(F)F)cc2)[C@@H](C(=O)Nc2ccc(C(F)(F)F)cc2F)C1=O (racemic) [Compound 1426]
10
